Source: paper PMC4336329

Measured hERG current change (%, negative = inhibition) at 10uM of individual entries
# target system: human ether-à-go-go-related gene (hERG) potassium channel (human);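 further: peak tail current of the secondary pulse compared with the same well before compound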
# Sequence (Q12809 whole entry, looked up): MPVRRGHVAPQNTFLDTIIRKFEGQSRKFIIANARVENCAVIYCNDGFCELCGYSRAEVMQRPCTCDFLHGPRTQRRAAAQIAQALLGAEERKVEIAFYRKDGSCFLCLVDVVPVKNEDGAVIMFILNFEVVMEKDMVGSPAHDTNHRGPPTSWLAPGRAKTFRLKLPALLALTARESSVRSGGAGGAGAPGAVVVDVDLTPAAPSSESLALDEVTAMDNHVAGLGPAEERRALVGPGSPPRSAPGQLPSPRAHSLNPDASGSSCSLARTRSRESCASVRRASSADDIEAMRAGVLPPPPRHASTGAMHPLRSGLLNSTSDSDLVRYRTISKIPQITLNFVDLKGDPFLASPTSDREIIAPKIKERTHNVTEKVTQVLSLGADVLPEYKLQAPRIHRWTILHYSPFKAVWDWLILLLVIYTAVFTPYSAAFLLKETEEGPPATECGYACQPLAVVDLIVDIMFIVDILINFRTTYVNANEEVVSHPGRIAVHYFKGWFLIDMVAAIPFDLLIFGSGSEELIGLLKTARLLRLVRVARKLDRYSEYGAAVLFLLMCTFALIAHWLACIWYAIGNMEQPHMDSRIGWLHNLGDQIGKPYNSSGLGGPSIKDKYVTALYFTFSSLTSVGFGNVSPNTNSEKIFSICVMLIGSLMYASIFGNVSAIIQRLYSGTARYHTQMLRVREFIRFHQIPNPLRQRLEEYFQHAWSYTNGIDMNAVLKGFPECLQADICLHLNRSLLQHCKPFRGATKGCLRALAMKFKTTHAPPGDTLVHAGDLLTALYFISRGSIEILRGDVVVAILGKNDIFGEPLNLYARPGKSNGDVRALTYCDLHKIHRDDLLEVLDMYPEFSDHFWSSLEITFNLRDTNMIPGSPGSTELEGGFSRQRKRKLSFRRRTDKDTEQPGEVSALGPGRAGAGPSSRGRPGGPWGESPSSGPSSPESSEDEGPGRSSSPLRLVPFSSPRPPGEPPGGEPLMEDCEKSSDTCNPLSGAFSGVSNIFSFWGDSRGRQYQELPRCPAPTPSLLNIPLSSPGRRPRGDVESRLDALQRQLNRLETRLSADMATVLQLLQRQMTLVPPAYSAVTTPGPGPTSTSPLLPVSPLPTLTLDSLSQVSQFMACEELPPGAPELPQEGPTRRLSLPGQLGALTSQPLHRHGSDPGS
# assay info: primary screen, population patch clamp on CHO cells stably expressing hERG; higher = less effect of the substance
The whole screen tested about 310,000 compounds, of which about 14,000 (4.5%) showed an effect of 50% or more. Effects have a minus sign here. What follows is part of a selection rich in strong results, with near analogues and random picks from the rest.
Numeric answer only, unit % assumed.

>>> print(df.to_string())
                                   compound  assay_result
0  O=C(O)CC1Sc2ccccc2NC1=O (stereo not drawn)         -13.4
1  CC(=O)OC1N=C(c2ccccc2Cl)c2cc(Br)ccc2NC1=O (stereo not drawn)         -40.3
2  O=C1Nc2ccc(Br)cc2C(c2ccccc2Cl)=NC1O (stereo not drawn)         -48.6
3  O=C(O)c1ccc(CSc2nnc(-c3ccc(Cl)cc3)o2)cc1          26.5

# get_value(readout='hERG current change (%, negative = inhibition) at 10uM', item= O=C1Nc2ccc(Br)cc2C(c2ccc(Cl)cc2)=NC1O (stereo not drawn) )
-56.5

# get_value(readout='hERG current change (%, negative = inhibition) at 10uM', item= CC(=O)OC1N=C(c2ccc(Cl)cc2)c2cc(Br)ccc2NC1=O (stereo not drawn) )
-55
